# study-system: human HPK1 (Homo sapiens, UniProt Q92918)
# Sequence (Q92918 whole entry): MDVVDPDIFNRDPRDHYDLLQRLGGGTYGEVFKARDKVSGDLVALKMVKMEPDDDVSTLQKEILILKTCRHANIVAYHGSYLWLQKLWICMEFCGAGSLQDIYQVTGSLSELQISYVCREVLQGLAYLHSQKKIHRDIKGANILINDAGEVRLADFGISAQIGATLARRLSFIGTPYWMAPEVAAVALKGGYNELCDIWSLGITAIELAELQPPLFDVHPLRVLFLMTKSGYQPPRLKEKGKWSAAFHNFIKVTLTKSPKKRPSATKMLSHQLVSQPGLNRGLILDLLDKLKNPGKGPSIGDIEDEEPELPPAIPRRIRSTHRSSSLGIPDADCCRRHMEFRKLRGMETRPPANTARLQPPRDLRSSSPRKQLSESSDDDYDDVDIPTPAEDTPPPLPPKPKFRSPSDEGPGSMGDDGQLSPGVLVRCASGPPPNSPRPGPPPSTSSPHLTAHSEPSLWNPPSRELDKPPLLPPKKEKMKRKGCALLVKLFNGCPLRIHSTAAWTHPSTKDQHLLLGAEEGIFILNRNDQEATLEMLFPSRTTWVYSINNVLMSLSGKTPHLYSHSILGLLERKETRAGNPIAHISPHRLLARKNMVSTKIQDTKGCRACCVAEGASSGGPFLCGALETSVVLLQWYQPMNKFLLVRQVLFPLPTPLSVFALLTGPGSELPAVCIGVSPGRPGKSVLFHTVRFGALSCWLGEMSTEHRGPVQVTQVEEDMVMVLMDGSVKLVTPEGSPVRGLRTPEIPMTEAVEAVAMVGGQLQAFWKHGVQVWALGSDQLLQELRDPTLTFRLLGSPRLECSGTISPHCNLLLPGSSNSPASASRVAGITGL
# test-protocol: HPK1 protein degradation assay (WB) in RAMOS cell line
# Type: cell-based
# Parameters: The RAMOS cell line was selected as the degradation cell line; endogenous in cells; host or cells: RAMOS
# setup-conditions: RAMOS cells, 16 h, Western blot
measure: DC50 (nM)

I. [2H]C([2H])([2H])n1cc(-c2c[nH]c3ncc(-c4ccc(N5CCC(CC6CCN(C(=O)c7ccc(Cl)c(N8CCC(=O)NC8=O)c7)CC6)CC5)nc4)nc23)cn1
II. CCn1cc(-c2c[nH]c3ncc(-c4ccc(N5CCC(CC6CCN(C(=O)c7ccc(Cl)c(N8CCC(=O)NC8=O)c7)CC6)CC5)nc4)nc23)cn1
Lower value for measured DC50? Options: I , II Return value: the label identifying the chosen record.
I
(I: 12.7 nM, II: 29.2 nM)

I. CCN1CCC(n2cc(-c3c[nH]c4ncc(-c5ccc(N6CCC(C)(CN7CCN(C(=O)c8ccc(Cl)c(N9CCC(=O)NC9=O)c8)CC7)CC6)cc5)nc34)cn2)CC1
II. CCN1CCC(n2cc(-c3c[nH]c4ncc(-c5ccc(N6CCC(CC7CCCN(C(=O)c8ccc(Cl)c(N9CCC(=O)NC9=O)c8)CC7)CC6)nc5)nc34)cn2)CC1 (stereo not shown)
III. O=C1CCN(c2cc(C(=O)N3CCC(CC4CCN(c5ccc(-c6cnc7[nH]cc(-c8cnn(C(F)F)c8)c7n6)cn5)CC4)CC3)ccc2Cl)C(=O)N1
Arrange the 3 molecules from largest to smallest DC50. // format: requested-order list of labels
II, I, III
(II: 385 nM, I: 52.4 nM, III: 23.9 nM)

====

# test-protocol: Pharmacokinetics of single administration in mice
# Assay type: in vivo, Balb/c mice
# Design: unit not given here
# setup-conditions: iv 2 mg/kg
measure: Vz

The following compounds have reported results that may help.
>  <compound>
CCn1cc(-c2c[nH]c3ncc(-c4ccc(N5CCC(CC6CCN(C(=O)c7ccc(Cl)c(N8CCC(=O)NC8=O)c7)CC6)CC5)nc4)nc23)cn1 [Compound C162]

>  <measured>
763

$$$$
>  <compound>
COCCn1cc(-c2c[nH]c3ncc(-c4ccc(N5CCC(CC6CCN(C(=O)c7ccc(Cl)c(N8CCC(=O)NC8=O)c7)CC6)CC5)nc4)nc23)cn1 [Compound C201]

>  <measured>
1230

$$$$

1. O=C1CCN(c2cc(C(=O)N3CCC(CC4CCN(c5ccc(-c6cnc7[nH]cc(-c8cnn(CCF)c8)c7n6)cn5)CC4)CC3)ccc2Cl)C(=O)N1 [Compound C197]
2. O=C1CCN(c2cc(C(=O)N3CCC(CC4CCN(c5ccc(-c6cnc7[nH]cc(-c8cnn(CC(F)F)c8)c7n6)cn5)CC4)CC3)ccc2Cl)C(=O)N1 [Compound C195]
Lower value for measured Vz? Options: 1 , 2 Return value: the label identifying the chosen record.
2

====

# study-system: UniProtKB Q92918
# test-protocol: HPK1 protein degradation assay (WB) in RAMOS cell line
# Type: cell-based
# Parameters: The RAMOS cell line was selected as the degradation cell line; endogenous in cells; host or cells: RAMOS
# setup-conditions: RAMOS cells, 16 h, Western blot
measure: Dmax (%)

>  <compound>
CC(C)(C#N)n1cc(-c2c[nH]c3ncc(-c4ccc(N5CCC(CC6CCN(C(=O)c7ccc(Cl)c(N8CCC(=O)NC8=O)c7)CC6)CC5)nc4)nc23)cn1 [Compound C181]

>  <study-system>
UniProtKB Q92918

>  <measure>
Dmax

>  <measured>
64.4

$$$$

P. CCN1CCC(n2cc(-c3c[nH]c4ncc(-c5ccc(N6CCC(F)(CN7CCN(C(=O)c8ccc(Cl)c(N9CCC(=O)NC9=O)c8)CC7)CC6)cc5)nc34)cn2)CC1 [Compound C137]
Q. O=C1CCN(c2cc(C(=O)N3CCC(CC4CCN(c5ccc(-c6cnc7[nH]cc(-c8cn[nH]c8)c7n6)cn5)CC4)CC3)ccc2Cl)C(=O)N1 [Compound C198]
Larger number for Dmax: P , or Q ? Return value: the label identifying the chosen record.
Q
(Q: 91.8%, P: 58.4%)

====

# test-protocol: Pharmacokinetics of single administration in mice
# Assay type: in vivo, Balb/c mice
# setup-conditions: female, Balb/c, mouse, plasma, po 10 mg/kg
measure: half-life (h)

The following molecules have reported results that may help.
>  <smiles-structure>
C/C(=C(Cl)\C=C/CC(=O)N1CCC(CC2CCN(c3ccc(-c4cnc5[nH]cc(-c6cnn(C)c6)c5n4)cn3)CC2)CC1)N1CCC(=O)NC1=O

>  <measure>
half-life

>  <measured>
3.35

$$$$
>  <smiles-structure>
O=C1CCN(c2cc(C(=O)N3CCC(CC4CCN(c5ccc(-c6cnc7[nH]cc(-c8cnn(C9CC9)c8)c7n6)cn5)CC4)CC3)ccc2Cl)C(=O)N1

>  <measure>
half-life

>  <measured>
4.22

$$$$
>  <smiles-structure>
COCCn1cc(-c2c[nH]c3ncc(-c4ccc(N5CCC(CC6CCN(C(=O)c7ccc(Cl)c(N8CCC(=O)NC8=O)c7)CC6)CC5)nc4)nc23)cn1

>  <measure>
half-life

>  <measured>
2.63

$$$$
>  <smiles-structure>
O=C1CCN(c2cc(C(=O)N3CCC(CC4CCN(c5ccc(-c6cnc7[nH]cc(-c8cnn(CC(F)F)c8)c7n6)cn5)CC4)CC3)ccc2Cl)C(=O)N1

>  <measure>
half-life

>  <measured>
2.8

$$$$

a. CCn1cc(-c2c[nH]c3ncc(-c4ccc(N5CCC(CC6CCN(C(=O)c7ccc(Cl)c(N8CCC(=O)NC8=O)c7)CC6)CC5)nc4)nc23)cn1
b. [2H]C([2H])([2H])n1cc(-c2c[nH]c3ncc(-c4ccc(N5CCC(CC6CCN(C(=O)c7ccc(Cl)c(N8CCC(=O)NC8=O)c7)CC6)CC5)nc4)nc23)cn1
Larger number for half-life: a , or b ? Return value: the label identifying the chosen record.
b

====

# study-system: human HPK1 (Homo sapiens, UniProt Q92918)
# test-protocol: HPK1 protein degradation assay (WB) in RAMOS cell line
# Type: cell-based
# Design: The RAMOS cell line was selected as the degradation cell line; endogenous in cells; host or cells: RAMOS
# setup-conditions: RAMOS cells, 16 h, Western blot
measure: Dmax (%)

The following compounds have reported results that may help.
>  <compound>
O=C1CCN(c2cc(C(=O)N3CCC(CC4CCN(c5ccc(-c6cnc7[nH]cc(-c8cnn(CCF)c8)c7n6)cn5)CC4)CC3)ccc2Cl)C(=O)N1 [Compound C197]

>  <study-system>
human HPK1 (Homo sapiens, UniProt Q92918)

>  <Dmax / %>
77.5

$$$$
>  <compound>
COCCn1cc(-c2c[nH]c3ncc(-c4ccc(N5CCC(CC6CCN(C(=O)c7ccc(Cl)c(N8CCC(=O)NC8=O)c7)CC6)CC5)nc4)nc23)cn1 [Compound C201]

>  <study-system>
human HPK1 (Homo sapiens, UniProt Q92918)

>  <Dmax / %>
76.1

$$$$
>  <compound>
O=C1CCN(c2cc(C(=O)N3CCC(CC4CCN(c5ccc(-c6cnc7[nH]cc(-c8cnn(CC(F)(F)F)c8)c7n6)cn5)CC4)CC3)ccc2Cl)C(=O)N1 [Compound C196]

>  <study-system>
human HPK1 (Homo sapiens, UniProt Q92918)

>  <Dmax / %>
93.8

$$$$

I. CCN1CCC(n2cc(-c3c[nH]c4ncc(-c5ccc(N6CCC(OC7CCN(C(=O)c8ccc(Cl)c(N9CCC(=O)NC9=O)c8)CC7)CC6)cc5)nc34)cn2)CC1 [Compound C131]
II. O=C1CCN(c2cc(C(=O)N3CCC(CC4CCN(c5ccc(-c6cnc7[nH]cc(-c8cnn(CC(F)F)c8)c7n6)cn5)CC4)CC3)ccc2Cl)C(=O)N1 [Compound C195]
Larger number for Dmax: I , or II ? Return value: the label identifying the chosen record.
II

====

# study-system: human HPK1 (Homo sapiens, UniProt Q92918)
# test-protocol: HPK1 protein degradation assay (WB) in RAMOS cell line
# Type: cell-based
# Set-up: The RAMOS cell line was selected as the degradation cell line; endogenous in cells; host or cells: RAMOS
# setup-conditions: RAMOS cells, 16 h, Western blot
measure: DC50 (nM)

>  <compound>
CCN1CCC(n2cc(-c3c[nH]c4ncc(-c5ccc(N6CCC(CN7CCN(C(=O)c8ccc(Cl)c(N9CCC(=O)NC9=O)c8)CC7)CC6)nc5)nc34)cn2)CC1 [Compound C084]

>  <study-system>
human HPK1 (Homo sapiens, UniProt Q92918)

>  <display-unit>
nM

>  <measured>
1.21

$$$$
>  <compound>
CCN1CCC(n2cc(-c3c[nH]c4ncc(-c5ccc(N6CCC(CC7CCN(C(=O)c8ccc(Cl)c(N9CCC(=O)NC9=O)c8)CC7)CC6)nc5)nc34)cn2)CC1 [Compound C024]

>  <study-system>
human HPK1 (Homo sapiens, UniProt Q92918)

>  <display-unit>
nM

>  <measured>
2.1

$$$$
>  <compound>
CCN1CCC(n2cc(-c3c[nH]c4ncc(-c5ccc(N6CCC(CC7CCN(C(=O)c8ccc(Cl)c(N9CCC(=O)NC9=O)c8)CC7C)CC6)cc5)nc34)cn2)CC1 (centres unmarked) [Compound C115]

>  <study-system>
human HPK1 (Homo sapiens, UniProt Q92918)

>  <display-unit>
nM

>  <measured>
23.5

$$$$

I. CCN1CCC(n2cc(-c3c[nH]c4ncc(-c5ccc(N6CCC(F)(CN7CCN(C(=O)c8ccc(Cl)c(N9CCC(=O)NC9=O)c8)CC7)CC6)cc5)nc34)cn2)CC1 [Compound C137]
II. CCN1CCC(n2cc(-c3c[nH]c4ncc(-c5ccc(N6CCC(CC7CCN(C(=O)c8ccc(Cl)c(N9CCC(=O)NC9=O)c8)CC7)CC6)nc5)nc34)cn2)CC1 [Compound C092]
Larger number for DC50: I , or II ? Return value: the label identifying the chosen record.
I
(I: 230 nM, II: 21.4 nM)
